# protocolSummary: binders of probe aFST on microarray, primary screen, stem cell growth factor project, biochemical, small-molecule microarray, fluorescence 635/667 (AID 1086);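 note: score merges 667 nm fluorescence with signal-to-noise of each printed compound spot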
# details: higher = more signal
Output schema: class label derived from composite z-score. Mapping: low band: < 0.05; middle band: ≥ 0.05 and < 1; high band: ≥ 1

Please review the entries below; each comes with its answer.
- compound: "COC(=O)[C@@]1(Cc2ccc(OC)cc2)[C@H]2c3cc(C(=O)N(C)C)n(Cc4ccc(S(C)(=O)=O)cc4)c3C[C@H]2CN1C(=O)c1ccccc1"
  group: "high band"
- compound: "COC(=O)C(CC#Cc1ccc2c(c1)[C@]1(C(=O)N2)[C@H](C(=O)Nc2nc3ccccc3s2)[C@H]2C(=O)O[C@H](c3ccccc3)[C@H](c3ccccc3)N2[C@@H]1c1ccccc1OCCO)C(=O)OC"
  group: "middle band"
- compound: "C[N+](C)(C)CCCCNC(=O)[C@H]1C[C@H]2C(=O)N3CCC[C@H]3C(=O)N2[C@H]1c1cccc(OCCO)c1"
  group: "middle band"
- compound: "C=C(/C(=C/C[C@H](OC(C)=O)c1ccccc1OCCO)c1cnc2ccccc2c1)C(C)C"
  group: "low band"
- compound: "Cc1ccc(S[C@]2(C(=O)O)CC(=O)N(C(C)C)[C@@H]2c2ccc(CO)cc2I)cc1"
  group: "high band"

[in] Tag the class for O=C1c2ccccc2[C@](Cc2ccccc2I)(C(=O)NCCN2CCOCC2)[C@H](c2ccc(CO)cc2)N1C1CCCCC1
[out] high band

[in] Which class holds O=C1C2C=CC(C(O)Cc3ccccc3)N(n3cnnc3)C2C(=O)N1Cc1ccccc1 (centres undefined) ?
[out] middle band

----------
# target: Fibroblast growth factor 10 (Homo sapiens) (UniProt O15520)
# Sequence (O15520 whole entry, looked up): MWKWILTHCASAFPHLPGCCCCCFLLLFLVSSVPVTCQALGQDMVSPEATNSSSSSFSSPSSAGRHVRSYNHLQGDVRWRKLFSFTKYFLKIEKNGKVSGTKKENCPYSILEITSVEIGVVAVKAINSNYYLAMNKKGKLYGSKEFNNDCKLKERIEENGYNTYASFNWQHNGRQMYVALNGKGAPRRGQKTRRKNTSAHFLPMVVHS
# protocolSummary: FGF10 binders on small-molecule microarrays, primary screen, biochemical, small-molecule microarray, 635 nm fluorescence (AID 1102)
# details: FGF10 binding, fluorescence 635 nm, higher = more signal
Field: composite z-score. Provide a value for each of the molecules that follow.
One number for each entry.

- smilesString: "CCC[C@@H]1C[C@@]1(CCC)[C@@H](NC(=O)c1ccccc1)c1cccc(Cl)c1"
  composite z-score: 0.905
- smilesString: "COC(=O)c1c(CC[C@@H](CO)NC(=O)NCCn2cc(C3(O)CCCC3)nn2)oc(C(C)=O)c1C(=O)OC"
  composite z-score: -0.0339
- smilesString: "C=CC[C@]1(C(=O)NCCCOC)N=C(c2ccc(OCCCO)cc2)O[C@H]1c1ccccc1CN=[N+]=[N-]"
  composite z-score: 0.944

Now look at this entry.
[in] Fill in the blank: the reported composite z-score of C=CCOC(=O)[C@H]1[C@@H]2C(=O)O[C@@H](c3ccccc3)[C@@H](c3ccccc3)N2[C@@H](c2ccc(OCCOC(=O)[C@H]3C[C@H]4C(=O)N[C@@H](CCCCNC(C)=O)C(=O)N4[C@H]3c3ccc(O)cc3)cc2)[C@]12C(=O)Nc1ccc(I)cc12 is ____.
[out] 0.707

----------
For each entry below, report its composite z-score value.
# target: Follistatin-related protein 3 (Homo sapiens) (UniProt O95633)
# Sequence (O95633 whole entry, looked up): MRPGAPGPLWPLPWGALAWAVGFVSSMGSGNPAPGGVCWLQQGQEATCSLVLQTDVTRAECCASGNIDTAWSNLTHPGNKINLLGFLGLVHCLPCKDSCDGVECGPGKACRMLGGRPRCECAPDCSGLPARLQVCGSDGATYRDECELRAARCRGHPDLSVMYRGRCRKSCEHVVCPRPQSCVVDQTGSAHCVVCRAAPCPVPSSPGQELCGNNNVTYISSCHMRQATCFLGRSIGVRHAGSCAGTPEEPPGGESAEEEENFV
# protocolSummary: FSTL3 binders on small-molecule microarrays, primary screen, biochemical, small-molecule microarray, 635 nm fluorescence (AID 1105);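 note: score merges emission near 667 nm and signal to noise per printed spot across three slides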
# details: FSTL3 binding, higher = more signal
Numbers only.

Example entries begin here.
- compound: "O[C@@H](Cc1ccccc1)[C@H]1C2C=CCCC=C2CN1Cc1cccc(Cl)c1 (some centres undefined)"
  composite z-score: 1.24
- compound: "COc1ccc(CCNC(=O)[C@@]2(Sc3ccc(C)cc3)CC(=O)N(C(C)C)[C@@H]2c2ccc(CO)cc2I)cc1"
  composite z-score: -0.645
- compound: "Cc1ccc(S[C@]2(C(=O)NC3CC3)CC(=O)N(Cc3ccccc3)[C@@H]2c2ccc(CO)cc2I)cc1"
  composite z-score: -1.37

Now, please, on to the next compound.
[in] Checklist item: composite z-score tested on Follistatin-related protein 3 (Homo sapiens) (UniProt O95633), entry COc1ccc([Si](C)(C)[C@@H]2[C@@H](CC(=O)N3CCC[C@H]3CO)O[C@]3(C(=O)N(c4ccccc4)c4ccccc43)[C@H]2C)cc1 , value?
[out] 1.4

----------
# target: NADPH oxidase 5 (Homo sapiens) (UniProt Q96PH1)
# Sequence (Q96PH1 whole entry, looked up): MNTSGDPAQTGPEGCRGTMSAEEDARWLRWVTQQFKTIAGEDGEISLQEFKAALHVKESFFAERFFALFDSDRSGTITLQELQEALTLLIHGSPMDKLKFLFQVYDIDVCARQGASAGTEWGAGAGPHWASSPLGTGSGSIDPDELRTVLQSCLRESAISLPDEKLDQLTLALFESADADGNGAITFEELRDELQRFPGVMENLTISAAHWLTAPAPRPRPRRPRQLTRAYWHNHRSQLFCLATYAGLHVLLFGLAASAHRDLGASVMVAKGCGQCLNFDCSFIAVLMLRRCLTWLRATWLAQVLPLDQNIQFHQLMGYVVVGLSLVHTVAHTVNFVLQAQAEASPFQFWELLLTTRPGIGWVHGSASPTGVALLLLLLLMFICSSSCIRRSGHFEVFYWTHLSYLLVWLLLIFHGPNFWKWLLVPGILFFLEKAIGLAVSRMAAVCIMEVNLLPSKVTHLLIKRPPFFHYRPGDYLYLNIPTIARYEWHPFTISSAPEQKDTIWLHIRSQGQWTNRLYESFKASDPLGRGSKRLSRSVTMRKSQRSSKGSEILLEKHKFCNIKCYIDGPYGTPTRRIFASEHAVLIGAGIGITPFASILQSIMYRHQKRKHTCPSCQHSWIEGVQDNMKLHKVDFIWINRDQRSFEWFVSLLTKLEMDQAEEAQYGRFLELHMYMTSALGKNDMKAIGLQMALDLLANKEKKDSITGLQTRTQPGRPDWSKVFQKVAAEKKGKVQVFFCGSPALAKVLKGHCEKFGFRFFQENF
# protocolSummary: NOX5-dependent H2O2 signal modulators, primary screen, NOX inhibitor project, cell-based, HEK293-NOX5, Amplex Red fluorescence (AID 1161)
# details: HEK293-NOX5, ionomycin, 45 min, higher = more signal
readoutLabel: z-score
One number for each entry.

Consider the worked cases shown below.
- smilesString: "CCOC(=O)C[C@H]1[C@H](OC(=O)c2ccc(C(=O)c3ccccc3)cc2)[C@@H](NC(=O)c2ccccc2)c2cc(OCCCO)ccc2N1C(=O)c1ccc2ccccc2n1"
  z-score: 1.94
- smilesString: "[N-]=[N+]=NCc1ccccc1C[C@]1(C(N)=O)COC(c2ccc(OCCCO)cc2)=N1"
  z-score: -1.07

Consider now this further molecule.
[in] Return reported z-score; argument: COCCOC(=O)N1C(=O)[C@@]2(c3cc(C#CC4(O)CCCCCC4)ccc31)[C@H](c1ccccc1OCCO)N1[C@H](c3ccccc3)[C@H](c3ccccc3)OC(=O)[C@H]1[C@@H]2C(=O)N1CCN(c2ncccn2)CC1
[out] 1.03

----------
# protocolSummary: anti-His antibody binders, primary screen, artefact control for SMM control protein annotation, biochemical, small-molecule microarray, 635 nm fluorescence (AID 1128);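 note: score merges feature fluorescence with signal-to-noise for each printed compound spot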
# details: anti-His Alexa647 antibody binding, higher = more signal
readoutLabel: composite z-score
Numbers only.

// worked examples, composite z-score included
- compound: "COCCOC(=O)N1C(=O)[C@@]2(c3cc(C#CCC(C(=O)OC)C(=O)OC)ccc31)[C@H](c1ccccc1OCCO)N1[C@H](c3ccccc3)[C@H](c3ccccc3)OC(=O)[C@H]1[C@@H]2C(=O)N1CCN(c2ncccn2)CC1"
  composite z-score: 0.762
- compound: "CC(C)CNC(=O)[C@@]1(Cc2ccccc2I)c2ccccc2C(=O)N(C2CCCCC2)[C@H]1c1ccc(CO)cc1"
  composite z-score: 1.57

[in] Give the measured composite z-score of Cc1ccccc1C(O)C1C=CC2C(=O)N(c3ccccc3)C(=O)C2N1Nc1ccc(C(C)C)cc1 (stereo not drawn) .
[out] 0.0147

----------
# target: Focal adhesion kinase 1 (Homo sapiens)
# protocolSummary: small-molecule microarray binders of FAK, primary screen, biochemical, 635/667 nm fluorescence, BSA, DTT (AID 1130);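 note: composite of spot emission at 667 nm and signal to noise over triplicate slides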
# details: PTK2 binding, 635 nm fluorescence, higher = more signal
readoutLabel: composite z-score
Answers are plain numbers.

Solved entries:
- molecule: "O=C1c2ccccc2[C@](Cc2ccccc2I)(C(=O)NCCN2CCOCC2)[C@H](c2ccc(CO)cc2)N1Cc1ccccc1Cl"
  composite z-score: 0.0936
- molecule: "COC(=O)[C@@]1(Cc2ccc(F)cc2)[C@H]2c3cc(C(=O)N(C)C)n(Cc4ccc(Cl)c(C(F)(F)F)c4)c3C[C@H]2CN1C(=O)c1ccccc1"
  composite z-score: 1.14

# input for lookup
[in] # get_value(readout='composite z-score', item= C=CCC(OC(C)=O)[C@@H]1[C@@H](N(Cc2cc3ccccc3o2)C(=O)c2cccc3ccccc23)c2cc(OCCCO)ccc2N1C(=O)c1ccc(-c2ccccc2)cc1 (stereo partly drawn) )
[out] -0.166

----------
# protocolSummary: modulators of HCV replicon luciferase signal, primary screen, HCV replication inhibitor project, Huh7 cells, luciferase reporter (AID 1109);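 note: huh7 hepatoma cells harbouring a luciferase neomycin HCV replicon reporter; luciferase luminescence as measure of HCV replicon replication; test concentration not given here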
# details: 48 h, higher = more signal
readoutLabel: z-score
Answers are plain numbers.

Use these answered entries as a reference point.
- compound: "C=C(CCCC)C(=O)CC[C@@H](OC(=O)c1ccccc1-c1ccccc1C(=O)O)c1ccc(OCCO)cc1"
  quantitativeReadout: -2.71
- compound: "O=C1c2ccccc2[C@](Cc2ccccc2I)(C(=O)NCCN2CCOCC2)[C@H](c2ccc(CO)cc2)N1Cc1ccccc1Cl"
  quantitativeReadout: -2.64
- compound: "O=C1C2C=CC(C(O)Cc3ccccc3)N(n3cnnc3)C2C(=O)N1Cc1ccccc1 (configuration not stated)"
  quantitativeReadout: -0.53
- compound: "CCC[C@@H]1C[C@@]1(CCC)[C@@H](NS(=O)(=O)c1cccc2cccnc12)c1ccc(Cl)cc1"
  quantitativeReadout: -1.38
- compound: "COC(=O)[C@@]1(Cc2ccccc2)[C@H]2c3cc(C(=O)N4CCCC4)n(Cc4ccc(S(C)(=O)=O)cc4)c3C[C@H]2CN1C(=O)c1ccccc1"
  quantitativeReadout: -2.02

For each of the items listed, what is its z-score?
1. CCCCN1CC=CC23O[C@@H]4C=CCCOC(=O)C4[C@H]2C(=O)N(CCCCCCO)[C@@H]3C1=O (some centres not stated)
2. CC(C)(C)OC(=O)CC[C@]1(C(=O)N2CCOCC2)N=C(c2ccc(OCCCO)cc2)O[C@H]1c1ccccc1N=[N+]=[N-]
3. O=C(CS)NCCCCCCNC(=O)[C@@H]1C[C@@H]2C(=O)NCC(=O)N2[C@@H]1c1cccc(OCCO)c1
4. O=C1C2C=CC(C(O)CCc3ccccc3)N(Nc3ccccc3F)C2C(=O)N1c1ccccc1 (configuration not stated)
5. CC(C)c1ccc(NN2C(C(O)c3ccc(B(O)O)cc3)C=CC3C(=O)N(c4ccccc4)C(=O)C32)cc1 (configuration not stated)

[out]
1: -0.485; 2: 2.2; 3: -0.895; 4: -0.83; 5: 4.39

Count: 7. Required value per item: z-score.
1. CC(C)NC(=O)[C@@]1(C)c2ccccc2C(=O)N(Cc2cc(C(F)(F)F)cc(C(F)(F)F)c2)[C@H]1c1ccc(CO)cc1
2. O=C1C2C=CC(C(O)c3cc(C(F)(F)F)cc(C(F)(F)F)c3)N(n3cnnc3)C2C(=O)N1Cc1ccccc1 (configuration not stated)
3. COC(=O)[C@@]1(Cc2ccc(OC)cc2)[C@@H]2C(=CC(=O)[C@H]2CC(=O)C(=O)N2CCCC2)CN1C(=O)c1ccccc1
4. C=CC[C@@]12N=C(c3ccc(OCCCO)cc3)O[C@@H]1c1ccccc1N(C)C2=O
5. C=C(/C(=C/C[C@H](OC(C)=O)c1ccc(CO)o1)c1cc(C(=O)OC)ccc1OC)C(C)C
6. COc1ccc(/C=C/C=O)cc1
7. COCCCNC(=O)[C@@]1(C)c2ccccc2C(=O)N(C(C)C)[C@H]1c1ccc(CO)cc1

[out]
1: -0.319; 2: -0.418; 3: -1.88; 4: -1.56; 5: -2.22; 6: 0.788; 7: -0.659
